The reported numbers originate from patent US8975371B2.

- Test system: MELOE-1 specific T cell clones / peptide-loaded T2 cells
- test_name: Relative avidity of MELOE-1 specific T cell clones, 4-h 51Cr assay against peptide-loaded T2 cells
- Format: cell-based, human
- conditions_used: healthy donor clonotype HD3.38; read-out: EC50 of clonotype HD3.38
pEC50: −log10 of the molar value.

residue_sequence	pEC50
TLNDECWPA	9.00
